Count Rate / kcps: recorded values
test: Zeta-potential measurement (dynamic light scattering); assay type: physicochemical; details: derived count rate of scattered light during zeta-potential measurements
Where a SMILES comes first, the peptide text is derived from it. The star is where a group is joined. X1 = CC/C=C\C/C=C\C/C=C\C/C=C\C/C=C\CCCC(=O)*; Palmitoyl = CCCCCCCCCCCCCCCC(=O)*; Nonanoyl = CCCCCCCCC(=O)*
readout-label: Count Rate / kcps (kcps)

- CC/C=C\C/C=C\C/C=C\C/C=C\C/C=C\CCCC(=O)N[C@H](C(=O)N[C@H](C(=O)N[C@H](C(=O)N[C@@H](C)C(=O)N[C@@H](C)C(=O)N[C@@H](C)C(=O)N[C@@H](CCCCN)C(=O)N[C@@H](CCCCN)C(=O)N[C@@H](CCCCN)C(N)=O)C(C)C)C(C)C)C(C)C [Pat10] (X1-VVVAAAKKK-NH2): 6069.8
- CCCCCCCCC(=O)N[C@H](C(=O)N[C@H](C(=O)N[C@H](C(=O)N[C@@H](C)C(=O)N[C@@H](C)C(=O)N[C@@H](C)C(=O)N[C@@H](CCCCN)C(=O)N[C@@H](CCCCN)C(=O)N[C@@H](CCCCN)C(N)=O)C(C)C)C(C)C)C(C)C [Pat8] (Nonanoyl-VVVAAAKKK-NH2): 77.2
- CCCCCCCCCCCCCCCC(=O)N[C@H](C(=O)N[C@H](C(=O)N[C@H](C(=O)N[C@@H](C)C(=O)N[C@@H](C)C(=O)N[C@@H](C)C(=O)N[C@@H](CCCCN)C(=O)N[C@@H](CCCCN)C(=O)N[C@@H](CCCCN)C(N)=O)C(C)C)C(C)C)C(C)C [PA1] (Palmitoyl-VVVAAAKKK-NH2): 3138.4
